EXPERIMENTAL_PROTOCOL: qHTS of pediatric cancer cell lines to identify multiple opportunities for drug repurposing: Primary screen for TC32 cells (AID 1347089); further: nearly all actives have a fitted effect of over 60% in size
CONDITION_INFO: TC32 Ewing sarcoma viability, CellTiter-Glo luminescence, 48 h; series mostly up to 45.8 µM
Records with an inconclusive call do not appear. Activity calls are given as the source filed them. The call rests on the fitted dose curve; in most records, active means well fitted cell-killing curve with a large enough effect; inconclusive means small, poorly fitted or top-dose-only effect; inactive means flat fitted curve, though single readings scatter.
Return exactly one item of True for active, False for inactive

Test call for this compound, please: `O=C(O)c1cc(Oc2ccc(C(F)(F)F)cc2Cl)ccc1[N+](=O)[O-]`
False

Test call for this compound, please: COc1cc([C@@H]2c3cc4c(cc3[C@@H](O)C3COC(=O)C32)OCO4)cc(OC)c1O (stereo partly drawn)
True

Test call for this compound, please: C=C[C@@H]1CN2CCC1C[C@H]2[C@H](O)c1ccnc2ccccc12 (stereo partly drawn)
False

Test call for this compound, please: `C1=C2CCCN[C@H]2[C@@H]2C[C@H]1[C@@H]1CCCCN1C2`
False

Test call for this compound, please: `Cc1nc(-c2ccc(-c3ccc(C(=O)N4CCc5cc6c(cc54)C4(CCN(C)CC4)CO6)cc3)c(C)c2)no1`
False

Test call for this compound, please: `O=C(O)COc1ccccc1`
False

Test call for this compound, please: `O=[N+]([O-])c1ccc([As](=O)(O)O)cc1`
False

Test call for this compound, please: CC1(C)CC/C(=C/c2ccc(Cl)cc2)C1(O)Cn1cncn1 (stereo not drawn)
False

Test call for this compound, please: `Cc1ccccc1-n1c(Cn2ncc3c(N)ncnc32)nc2cccc(C)c2c1=O`
True

Test call for this compound, please: `CCOC(=O)c1c(C(C#N)=CN)c2ccc(Cl)c(Cl)c2n1C`
False

Test call for this compound, please: `c1ccc(CCCN2CCN(CCOC(c3ccccc3)c3ccccc3)CC2)cc1`
False

Test call for this compound, please: `Nc1ccc(Cl)cc1N`
False

Test call for this compound, please: COC(=O)c1cncn1C(C)c1ccccc1 (stereo not drawn)
False

Test call for this compound, please: `O=C(O)CCCOc1ccc(Cl)cc1Cl`
False

Test call for this compound, please: `O=C(NCC1CCOCC1)c1cnc(Nc2ccc(Cl)cc2Cl)nc1C(F)(F)F`
False

Test call for this compound, please: CCCCC(CC)COC(=O)c1ccccc1C(=O)OCC(CC)CCCC (stereo not drawn)
False

Test call for this compound, please: `C[C@]12Cc3cn[nH]c3C[C@@H]1CC[C@@H]1[C@H]2CC[C@@]2(C)[C@H]1CC[C@]2(C)O`
False

Test call for this compound, please: CCC(=O)O[C@@H]1C=C2CCC3C(CCC4(C)C3CC[C@@H]4OC(=O)CC)C2CC1 (stereo partly drawn)
False

Test call for this compound, please: `O=C(Oc1ccc([N+](=O)[O-])cc1)N1CCN(Cc2cccc(Oc3ccccc3)c2)CC1`
False

Test call for this compound, please: `Nc1ccc([N+](=O)[O-])cc1`
False

Test call for this compound, please: `O=S(=O)(O)C(F)(F)C(F)(F)C(F)(F)C(F)(F)C(F)(F)C(F)(F)C(F)(F)C(F)(F)F`
False

Test call for this compound, please: `COc1cccc2c1[C@]13CCN(CC4CC4)[C@H](C2)[C@]1(OC)CCC(=O)C3`
False

Test call for this compound, please: `COc1cc2cc(c1Cl)N(C)C(=O)C[C@H](OC(=O)C(C)C)[C@]1(C)O[C@H]1[C@H](C)[C@@H]1C[C@@](O)(NC(=O)O1)[C@H](OC)C=CC=C(C)C2`
True

Test call for this compound, please: CC(O)CN1CCN(CC(=O)[O-])CCN(CC(=O)[O-])CCN(CC(=O)[O-])CC1.[Gd+3] (stereo not drawn)
False

Test call for this compound, please: `C[C@]12CC[C@H](O)CC1=CC[C@H]1[C@H]3CCC(=O)[C@@]3(C)CC[C@@H]12`
False

Test call for this compound, please: `c1cc2c(cc1[C@H]1OC[C@H]3[C@H]1CO[C@H]3c1ccc3c(c1)OCO3)OCO2`
False

Test call for this compound, please: `CS(=O)(=O)c1ccc(C(=O)C2C(=O)CCCC2=O)c([N+](=O)[O-])c1`
False

Test call for this compound, please: C#CC1(O)CCC2C3CCC4=CC(=O)CCC4(C)C3CCC21C (stereo not drawn)
False
